# TEST_CONDITIONS: human gut metagenome, 24 h, 2 µM; further: call rule not given here
OBSERVED_PROPERTY: Bacterial Biotransformation

Below, 5 compounds whose answers are already recorded.
CCN(CC)CCNC(C(=O)OCCC(C)C)c1ccccc1.Cl.Cl (stereo not drawn) ... Compound metabolized
C#C[C@]1(O)CC[C@H]2[C@@H]3CCC4=CC(=O)CC[C@@H]4[C@H]3CC[C@@]21CC [LEVONORGESTREL] ... Compound metabolized
CNCCC(Oc1ccc(C(F)(F)F)cc1)c1ccccc1 (stereo not drawn) [FLUOXETINE] ... Compound metabolized
CC(CN1c2ccccc2Sc2ccccc21)N(C)C (stereo not drawn) [PROMETHAZINE] ... Compound metabolized
CN/C(=N/CCSCc1nc[nH]c1C)NC#N [CIMETIDINE] ... Compound NOT metabolized

What Bacterial Biotransformation value was documented for this compound, CCN1CCCC1CNC(=O)c1cc(S(N)(=O)=O)ccc1OC (stereo not drawn) [SULPIRIDE] ? Compound NOT metabolized

What Bacterial Biotransformation value was documented for this compound, CC(C)c1c(C(=O)Nc2ccccc2)c(-c2ccccc2)c(-c2ccc(F)cc2)n1CC[C@@H](O)C[C@@H](O)CC(=O)O [ATORVASTATIN] ? Compound metabolized

What Bacterial Biotransformation value was documented for this compound, NC(=O)N1c2ccccc2CC(=O)c2ccccc21 [OXCARBAZEPINE] ? Compound NOT metabolized

What Bacterial Biotransformation value was documented for this compound, OCCN1CCN(CCCN2c3ccccc3Sc3ccc(C(F)(F)F)cc32)CC1 [FLUPHENAZINE] ? Compound metabolized

What Bacterial Biotransformation value was documented for this compound, C[C@@H](CO)NC(=O)[C@@H]1C=C2c3cccc4[nH]cc(c34)C[C@H]2N(C)C1.O=C(O)/C=C\C(=O)O [ERGONOVINE MALEATE] ? Compound NOT metabolized

What Bacterial Biotransformation value was documented for this compound, CCCc1nc(C(C)(C)O)c(C(=O)OCc2oc(=O)oc2C)n1Cc1ccc(-c2ccccc2-c2nnn[nH]2)cc1 [OLMESARTAN MEDOXOMIL] ? Compound NOT metabolized

###

# EXPERIMENT_SUMMARY: The drug is tested on Z-002 corresponding to rabbit gut metagenome with ENA study accession number: PRJEB37062 and ENA sample accession number: ERS12561802 for biotransformation under anaerobic condition. The drug concentrations were measured over 9 timepoints collected between 0 and 24 hours of incubation by liquid-chromatography-coupled mass spectrometry (LC–MS)
# TEST_CONDITIONS: 2 µM
OBSERVED_PROPERTY: Bacterial Biotransformation

Below, 10 compounds whose answers are already recorded.
NC(=O)N1c2ccccc2CC(=O)c2ccccc21 [OXCARBAZEPINE] ... Compound metabolized
Cc1ccnc2c1NC(=O)c1cccnc1N2C1CC1 [NEVIRAPINE] ... Compound metabolized
COC(=O)Nc1nc2ccc(C(=O)c3ccccc3)cc2[nH]1 [MEBENDAZOLE] ... Compound metabolized
CO[C@]12C[C@@H](COC(=O)c3cncc(Br)c3)CN(C)[C@@H]1Cc1cn(C)c3cccc2c13 [NICERGOLINE] ... Compound metabolized
Cc1ccc(-c2nc3ccc(C)cn3c2CC(=O)N(C)C)cc1 [ZOLPIDEM] ... Compound metabolized
COc1ccc(CCN(C)CCCC(C#N)(c2ccc(OC)c(OC)c2)C(C)C)cc1OC (stereo not drawn) ... Compound metabolized
CCC(=O)NCC[C@@H]1CCc2ccc3c(c21)CCO3 [RAMELTEON] ... Compound metabolized
C=CCN1CC[C@]23c4c5ccc(O)c4O[C@H]2C(=O)CC[C@@]3(O)[C@H]1C5 [NALOXONE] ... Compound NOT metabolized
CC(C)NCC(O)COc1ccc(COCCOC(C)C)cc1.CC(C)NCC(O)COc1ccc(COCCOC(C)C)cc1.O=C(O)/C=C/C(=O)O (stereo not drawn) [BISOPROLOL FUMARATE] ... Compound metabolized
CC(C)NCC(O)COc1ccc(CCOCC2CC2)cc1 (stereo not drawn) [BETAXOLOL] ... Compound metabolized

What Bacterial Biotransformation value was documented for this compound, CCCCC1=NC2(CCCC2)C(=O)N1Cc1ccc(-c2ccccc2-c2nnn[nH]2)cc1 [IRBESARTAN] ? Compound metabolized

What Bacterial Biotransformation value was documented for this compound, CN1CCN(C2=Nc3cc(Cl)ccc3Nc3ccccc32)CC1 [CLOZAPINE] ? Compound metabolized

What Bacterial Biotransformation value was documented for this compound, CCCc1nc(C(C)(C)O)c(C(=O)OCc2oc(=O)oc2C)n1Cc1ccc(-c2ccccc2-c2nnn[nH]2)cc1 [OLMESARTAN MEDOXOMIL] ? Compound metabolized

What Bacterial Biotransformation value was documented for this compound, CCc1nc(N)nc(N)c1-c1ccc(Cl)cc1 [PYRIMETHAMINE] ? Compound metabolized

What Bacterial Biotransformation value was documented for this compound, Fc1ccc([C@@H]2CCNC[C@H]2COc2ccc3c(c2)OCO3)cc1 [PAROXETINE] ? Compound NOT metabolized

###

# TEST_CONDITIONS: human gut metagenome, 24 h, 2 µM
OBSERVED_PROPERTY: Bacterial Biotransformation

Below, 6 molecules whose answers are already recorded.
O=c1[nH]c2ccccc2n1C1CCN(CCCC(c2ccc(F)cc2)c2ccc(F)cc2)CC1 [PIMOZIDE] ... Compound metabolized
CN(C(=O)CN(CCO)CC(=O)N(C)C(C)(C)Cc1ccccc1)C(C)(C)Cc1ccccc1 [OXETHAZAINE] ... Compound metabolized
COc1ccc(CCN(C)CCCC(C#N)(c2ccc(OC)c(OC)c2)C(C)C)cc1OC (configuration not stated) ... Compound NOT metabolized
Cc1ccc(S(=O)(=O)NC(=O)NN2CCCCCC2)cc1 [TOLAZAMIDE] ... Compound metabolized
Cc1cc2c(cc1S(N)(=O)=O)S(=O)(=O)CCC2 ... Compound NOT metabolized
Cc1ccc(/C(=C\CN2CCCC2)c2ccccn2)cc1 [TRIPROLIDINE] ... Compound NOT metabolized

// switching to the query molecule
What Bacterial Biotransformation value was documented for this molecule, COc1cc2nc(N(C)CCCNC(=O)C3CCCO3)nc(N)c2cc1OC (configuration not stated) [ALFUZOSIN] ? Compound NOT metabolized

###

# EXPERIMENT_SUMMARY: The drug is tested on Z-014 corresponding to rat gut metagenome with ENA study accession number: PRJEB37062 and ENA sample accession number: ERS12561814 for biotransformation under anaerobic condition. The drug concentrations were measured over 9 timepoints collected between 0 and 24 hours of incubation by liquid-chromatography-coupled mass spectrometry (LC–MS)
# TEST_CONDITIONS: 2 µM
OBSERVED_PROPERTY: Bacterial Biotransformation

Below, 8 compounds whose answers are already recorded.
CC(C)(Oc1ccc(CCNC(=O)c2ccc(Cl)cc2)cc1)C(=O)O [BEZAFIBRATE] ... Compound NOT metabolized
CC(C)NCC(O)COc1ccc(COCCOC(C)C)cc1.CC(C)NCC(O)COc1ccc(COCCOC(C)C)cc1.O=C(O)/C=C/C(=O)O (centres undefined) [BISOPROLOL FUMARATE] ... Compound NOT metabolized
COc1cc2nc(N3CCN(C(=O)c4ccco4)CC3)nc(N)c2cc1OC [PRAZOSIN] ... Compound NOT metabolized
COc1c(C)c2c(c(O)c1C/C=C(\C)CCC(=O)OCCN1CCOCC1)C(=O)OC2 [MYCOPHENOLATE MOFETIL] ... Compound metabolized
CCN(CC)CCNC(C(=O)OCCC(C)C)c1ccccc1.Cl.Cl (centres undefined) ... Compound NOT metabolized
COc1c2occc2cc2ccc(=O)oc12 [METHOXSALEN] ... Compound NOT metabolized
Cc1nc2n(c(=O)c1CCN1CCC(c3noc4cc(F)ccc34)CC1)CCCC2O (centres undefined) [PALIPERIDONE] ... Compound NOT metabolized
CC(C)(C#N)c1cc(Cn2cncn2)cc(C(C)(C)C#N)c1 [ANASTROZOLE] ... Compound NOT metabolized

// switching to the query compound
What Bacterial Biotransformation value was documented for this compound, COc1ccc(CCN(C)CCCC(C#N)(c2ccc(OC)c(OC)c2)C(C)C)cc1OC (centres undefined) ? Compound NOT metabolized

###

# TEST_CONDITIONS: human gut metagenome, 24 h, 2 µM
OBSERVED_PROPERTY: Bacterial Biotransformation

Below, 4 compounds whose answers are already recorded.
CN1C(=O)CC(C)(c2ccccc2)C1=O (centres undefined) [METHSUXIMIDE] ... Compound metabolized
Clc1ccc(Cn2c(CN3CCCC3)nc3ccccc32)cc1 ... Compound metabolized
CC(C)(C(=O)O)c1ccc(C(O)CCCN2CCC(C(O)(c3ccccc3)c3ccccc3)CC2)cc1 (centres undefined) [FEXOFENADINE] ... Compound NOT metabolized
CN1CCN(C(=O)O[C@H]2c3nccnc3C(=O)N2c2ccc(Cl)cn2)CC1 ... Compound NOT metabolized

What Bacterial Biotransformation value was documented for this compound, O=C(Nc1ccccc1)OCC(CN1CCCCC1)OC(=O)Nc1ccccc1 (centres undefined) ? Compound metabolized

What Bacterial Biotransformation value was documented for this compound, CC(C)(Oc1ccc(CCNC(=O)c2ccc(Cl)cc2)cc1)C(=O)O [BEZAFIBRATE] ? Compound metabolized

What Bacterial Biotransformation value was documented for this compound, Cc1ccc(-c2nc3ccc(C)cn3c2CC(=O)N(C)C)cc1 ? Compound metabolized

What Bacterial Biotransformation value was documented for this compound, CC[C@H](C)C(=O)O[C@H]1C[C@@H](C)C=C2C=C[C@H](C)[C@H](CC[C@@H]3C[C@@H](O)CC(=O)O3)[C@H]21 ? Compound NOT metabolized

What Bacterial Biotransformation value was documented for this compound, CCCc1nc(C(C)(C)O)c(C(=O)OCc2oc(=O)oc2C)n1Cc1ccc(-c2ccccc2-c2nnn[nH]2)cc1 ? Compound metabolized

src = ChEMBL document CHEMBL5724914
